These measurements were taken from patent US8791267B2.

biological target: UniProt:Q08499; test: In-vitro assay for PDE4 enzymes, real-time enzyme-coupled spectrophotometric assay (Table 9); format: biochemical; conditions: human PDE4D; activity class, Table 9; read-out: hPDE4D
Counter-ions that a name gives are not always drawn.
MEASURED PROPERTY: IC50

Examples with answers:
>>> experimental_result("CCNC(=O)Nc1ccc(Sc2ccc(OC)c(-c3cccc(Cl)c3)c2)cc1")
"< 5 µM"
>>> experimental_result("COc1ccc(Cc2ccc(C(N)=O)nc2)c(F)c1-c1cccc(Cl)c1")
"< 5 µM"
>>> experimental_result("[2H]C([2H])([2H])Oc1ccc(Cc2ccc(NC(N)=O)cc2)cc1-c1cccc(Cl)c1")
"< 5 µM"

# IC50 of COc1ccc(Cc2ccc(F)cc2)c(F)c1-c1cccc(Br)c1 = < 5 µM

# IC50 of COc1ccc(Cc2ccc(C(N)=O)nc2)c(F)c1-c1cccc(C(C)=O)c1 = < 5 µM

# IC50 of COc1ccc(Cc2ccc(N3CCC[C@H]3C(N)=O)nc2)c(F)c1-c1cccc(Cl)c1 = < 5 µM

# IC50 of COc1ccc(Cc2ccc(OCCN3CCOCC3)cc2)c(F)c1-c1cccc(Cl)c1 = < 5 µM

# IC50 of [2H]C(O)(c1ccc([N+](=O)[O-])cc1)c1ccc(OC)c(-c2cccc(Cl)c2)c1F (stereo not shown) = < 5 µM

# IC50 of COc1ccc(Cc2ccc(CNC(N)=O)nc2)c(F)c1-c1cccc(Cl)c1 = < 5 µM

# IC50 of CCOC(=O)N(CC)c1ccc(Cc2ccc(OC)c(-c3cccc(Cl)c3)c2F)cn1 = < 5 µM

# IC50 of COc1c(F)cc(Cc2ccc(NC(N)=O)cc2)cc1-c1cccc(Cl)c1 = < 5 µM

# IC50 of CCOc1ccc(Cc2ccc(N)cc2)c(F)c1-c1cccc(C(C)=O)c1 [P-334, hydrochloride] = < 5 µM

---

# pIC50 annotations
biological target: PDE4 (Homo sapiens, UniProt Q08499); experiment: In-vitro assay for PDE4 enzymes, real-time enzyme-coupled spectrophotometric assay (Table 9); type: biochemical; settings: human PDE4D; activity class, Table 9; read-out: hPDE4D
Sequence (Q08499 whole entry): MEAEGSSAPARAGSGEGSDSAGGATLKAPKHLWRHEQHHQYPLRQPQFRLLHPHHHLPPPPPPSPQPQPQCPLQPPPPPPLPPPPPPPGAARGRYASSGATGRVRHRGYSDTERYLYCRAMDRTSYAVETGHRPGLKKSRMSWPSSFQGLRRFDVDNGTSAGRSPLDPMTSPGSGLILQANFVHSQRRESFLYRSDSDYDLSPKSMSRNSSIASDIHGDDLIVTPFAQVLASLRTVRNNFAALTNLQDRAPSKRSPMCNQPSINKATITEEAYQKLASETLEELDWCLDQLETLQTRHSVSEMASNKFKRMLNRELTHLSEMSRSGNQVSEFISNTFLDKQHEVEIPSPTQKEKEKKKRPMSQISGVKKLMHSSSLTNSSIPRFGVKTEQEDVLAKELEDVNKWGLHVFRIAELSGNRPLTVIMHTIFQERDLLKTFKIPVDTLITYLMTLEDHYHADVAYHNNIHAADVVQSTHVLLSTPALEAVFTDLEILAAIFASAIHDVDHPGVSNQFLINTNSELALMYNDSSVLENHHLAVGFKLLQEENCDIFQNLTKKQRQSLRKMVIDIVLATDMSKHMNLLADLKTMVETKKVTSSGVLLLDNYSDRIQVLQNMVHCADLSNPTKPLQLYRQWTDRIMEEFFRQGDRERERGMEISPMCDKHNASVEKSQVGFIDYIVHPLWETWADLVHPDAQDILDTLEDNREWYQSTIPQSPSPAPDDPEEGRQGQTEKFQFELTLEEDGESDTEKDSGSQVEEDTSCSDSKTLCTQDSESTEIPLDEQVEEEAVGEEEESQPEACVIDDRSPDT
pIC50: −log10 of the molar value.

>>> experimental_result("COc1ccc(Cn2ccc(C(N)=O)cc2=O)cc1-c1cccc([N+](=O)[O-])c1 [P-207]")
"4.70 to 5.30"
>>> experimental_result("COc1ccc(CN2CCNC2=O)nc1-c1cccc([N+](=O)[O-])c1 [P-033]")
"4.70 to 5.30"
>>> experimental_result("COc1ccc(Cc2ccc(OCCN(C)C)cc2)cc1-c1cccc([N+](=O)[O-])c1 [P-164]")
"> 5.30"
>>> experimental_result("COc1ccc(C2(c3ccc(F)cc3)CCN(C)CC2)cc1-c1cccc(Cl)c1 [P-564]")
"4.70 to 5.30"
>>> experimental_result("COc1ccc(Cc2ccc(F)cc2)cc1-c1cccc(N2CCOCC2)c1 [P-385]")
"4.70 to 5.30"
>>> experimental_result("NC(=O)Nc1ccc(Cc2ccc(OC(F)F)c(-c3cccc(Br)c3)c2F)cc1 [P-323]")
"> 5.30"
>>> experimental_result("COc1ccc(Cc2cccc(NS(C)(=O)=O)c2)cc1-c1cccc(Cl)c1 [P-271]")
"4.70 to 5.30"
>>> experimental_result("COc1ccc(Cc2ccc(NC(N)=O)cc2)cc1-c1cccc(C#N)c1 [P-394]")
"> 5.30"
>>> experimental_result("O=c1ccc(Cc2ccc(O)c(-c3cccc([N+](=O)[O-])c3)c2)n[nH]1 [P-488]")
"> 5.30"
>>> experimental_result("COc1ccc(Cn2cc(-c3ccccn3)cn2)c(F)c1-c1cccc(Cl)c1 [P-527]")
"> 5.30"

# pIC50 of COc1ccc(Cc2ccc(C(N)=O)cc2)c(F)c1-c1cccc(C(C)=O)c1 [P-305] = > 5.30

# pIC50 of COc1ccc(CN2CCCC2=O)cc1-c1ccc2c(c1)OCO2 [P-045] = 4.40 to 4.70

# pIC50 of COc1ccc(COc2ccnc(Cl)c2)c(F)c1-c1cccc(Cl)c1 [P-604] = > 5.30

# pIC50 of Nc1ccc(Cc2ccc(OC3COC3)c(-c3cccc(Cl)c3)c2)cc1 [P-562] = > 5.30

# pIC50 of COc1ccc(Cc2ccc(F)cc2)c(OC)c1-c1cccc([N+](=O)[O-])c1 [P-097] = > 5.30

# pIC50 of COc1ccc(Cc2ccc(F)cc2)c(N)c1-c1cccc([N+](=O)[O-])c1 [P-176] = > 5.30

# pIC50 of COc1ccc(Cc2ccc(-n3cnnn3)nc2)c(F)c1-c1cccc(Cl)c1 [P-422] = > 5.30

# pIC50 of COc1ccc(Cc2ccc(N(C)C(N)=O)cc2)c(F)c1-c1cccc(C(C)=O)c1 [P-338] = > 5.30

# pIC50 of CCOC(=O)NCc1ccc(Cc2ccc(OC)c(-c3cccc(Cl)c3)c2F)cn1 [P-367] = > 5.30
